What Specificity was measured for each of the following?
# assay-target: Prolyl endopeptidase (Homo sapiens) (UniProt P48147)
# Sequence (P48147 whole entry): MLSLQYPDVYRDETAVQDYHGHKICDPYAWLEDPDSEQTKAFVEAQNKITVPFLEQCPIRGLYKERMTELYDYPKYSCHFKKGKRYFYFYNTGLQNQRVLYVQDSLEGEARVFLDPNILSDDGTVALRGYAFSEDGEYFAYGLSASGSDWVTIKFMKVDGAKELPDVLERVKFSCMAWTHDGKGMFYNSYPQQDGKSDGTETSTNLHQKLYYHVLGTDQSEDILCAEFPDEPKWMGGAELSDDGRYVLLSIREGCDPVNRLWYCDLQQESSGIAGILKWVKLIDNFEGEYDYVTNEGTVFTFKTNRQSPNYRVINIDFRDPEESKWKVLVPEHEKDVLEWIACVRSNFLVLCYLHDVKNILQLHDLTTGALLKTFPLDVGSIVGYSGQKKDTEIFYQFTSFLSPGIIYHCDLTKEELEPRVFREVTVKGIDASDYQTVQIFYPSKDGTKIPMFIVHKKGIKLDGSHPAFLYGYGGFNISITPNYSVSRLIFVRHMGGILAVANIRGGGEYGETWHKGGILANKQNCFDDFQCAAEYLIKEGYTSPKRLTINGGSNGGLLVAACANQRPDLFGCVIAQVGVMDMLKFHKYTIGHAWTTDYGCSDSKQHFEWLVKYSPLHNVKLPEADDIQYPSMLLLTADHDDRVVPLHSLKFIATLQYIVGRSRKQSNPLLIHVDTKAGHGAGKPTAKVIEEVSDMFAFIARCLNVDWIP
# protocol-notes: Effect on the activity of prolyl endopeptidase (PEP) is evaluated at the IC50 concentration for DPPIV.
I only need the number, thanks.

Give the measured Specificity for COC(=O)c1ccc(OP(=O)(Oc2ccc(C(=O)OC)cc2)C2CCCN2C(=O)C2CCCN2)cc1 (stereo not given)
73

Give the measured Specificity for Cl.O=C([C@H]1CCCN1)N1CCCC1P(=O)(Oc1ccccc1)Oc1ccccc1 (stereo not given in full)
107

Give the measured Specificity for COC(=O)CCNC(=O)c1ccc(OP(=O)(Oc2ccc(C(=O)NCCC(=O)OC)cc2)C2CCCN2C(=O)C2CCCN2)cc1.Cl (stereo not given)
83

Give the measured Specificity for C[C@H](N)C(=O)Nc1ccc(OP(=O)(Oc2ccc(NC(=O)[C@@H](C)N)cc2)C2CCCN2C(=O)C2CCCN2)cc1.Cl (stereo not given in full)
88

Give the measured Specificity for CS(=O)(=O)Nc1ccc(OP(=O)(Oc2ccc(NS(C)(=O)=O)cc2)C2CCCN2C(=O)C2CCCN2)cc1.Cl (stereo not given)
73

Give the measured Specificity for CCOC(=O)CNC(=O)c1ccc(OP(=O)(Oc2ccc(C(=O)NCC(=O)OCC)cc2)C2CCCN2C(=O)C2CCCN2)cc1.Cl (stereo not given)
85

Give the measured Specificity for Cl.O=C(CNC(=O)c1ccccc1)Nc1ccc(OP(=O)(Oc2ccc(NC(=O)CNC(=O)c3ccccc3)cc2)C2CCCN2C(=O)C2CCCN2)cc1 (stereo not given)
92

Give the measured Specificity for COC(=O)C(Cc1ccc(OP(=O)(Oc2ccc(CC(NC(C)=O)C(=O)OC)cc2)C2CCCN2C(=O)C2CCCN2)cc1)NC(C)=O (stereo not given)
102

Give the measured Specificity for CCCNC(=O)c1ccc(OP(=O)(Oc2ccc(C(=O)NCCC)cc2)C2CCCN2C(=O)C2CCCN2)cc1.Cl (stereo not given)
97

Give the measured Specificity for CC(=O)Nc1ccc(OP(=O)(Oc2ccc(NC(C)=O)cc2)C2CCCN2C(=O)C2CCCN2)cc1.Cl (stereo not given)
96

Where do the numbers come from? From ChEMBL document CHEMBL1132608.
